valueKind: melting point

{"molecule": "Cc1c(C(=O)O)oc2c(Cl)cccc12", "melting point": "229 to 231 °C"}
{"molecule": "O=C(O)/C=C/c1ccc2c(c1)CCO2", "melting point": "175 to 177 °C"}
{"molecule": "O=C(O)CSc1nnc(-c2ccc(Cl)cc2)o1", "melting point": "154 to 156 °C"}
{"molecule": "Nc1cccc(-c2nc(C3CC3)n[nH]2)c1", "melting point": "154 to 156 °C"}

melting point for Cn1cc(Br)cc1C(=O)NC1CC1 is 112 to 114 °C

# molecule O=C(CCl)Nc1cc2c(cc1[N+](=O)[O-])OCO2 ; its melting point = 142 to 144 °C

In plain terms, O=C(O)CSc1nnc(-c2ccc3ccccc3c2)o1 has a documented melting point of 182 to 184 °C

Noted for O=C1COc2cc(Br)c(S(=O)(=O)Cl)cc2N1 : its melting point reads 211 to 213 °C

Reported melting point of CCOc1ccc(-n2c(C)cc(C(=O)CCl)c2C)cc1 : 118 to 122 °C

###

Catalogue of melting point readings, one per entry.

Short answer for Cc1ccc(NC(=O)CC(N)=NO)cc1 : melting point was 168 to 170 °C

Looking up NS(=O)(=O)c1ccc(/C=C/C(=O)O)cc1 , I see its melting point listed as 274 to 276 °C

Just so you know, measured melting point for O=C(O)C=Cc1cc(Cl)ccc1OCc1ccc(Cl)cc1 came out at 162 to 164 °C

The compound identified as O=c1[nH]c2c(s1)CCCC2 registered its melting point at 141 to 143 °C

Documented melting point of CC(NC(=O)c1ccccc1N)c1ccccc1 (configuration not stated) : 127 to 129 °C

The compound identified as Cc1nc(-c2c[nH]c(C(=O)O)c2)cs1 registered its melting point at 209 to 211 °C

Documented melting point of COc1cc(S(N)(=O)=O)ccc1N : 142 to 144 °C

###

# melting point values compiled below

# annotated cases, reported melting point shown
{"chemicalSmiles": "CC1=CC=CC(=C2Nc3cc(F)ccc3N2C(C)C)C1=N", "melting point": "185 to 187 °C"}
{"chemicalSmiles": "O=C(O)c1cc(Cl)ccc1I", "melting point": "162 to 164 °C"}
{"chemicalSmiles": "OCc1noc(-c2ccccc2)n1", "melting point": "80 to 82 °C"}

Record summary for NC(=O)Cn1c(S)nnc1-c1cccs1 : reported melting point = 319 to 321 °C

Input Cn1ccc(C(=O)O)c1 . Output melting point: 144 to 146 °C

Sure, the documented melting point for CCc1ccc2cc(C(=O)O)[nH]c2c1 is 178 to 180 °C

Sure, the documented melting point for Cc1cccc2nc(CSc3ccccc3C(=O)O)cc(=O)n12 is 211 to 213 °C

Item: O=C(O)C1(O)CCSCC1 | melting point: 118 to 120 °C

For record CC(=O)c1ccc(CNC(=O)OC(C)(C)C)nc1C the listed melting point is 72 to 74 °C

# melting point of COC(=O)CN(C)c1ccc(Br)cn1 = 92 to 94 °C

###

Items are presented alongside their recorded melting point.

Previously resolved entries follow.
{"compound": "CCc1ccc2c(c1)C(=O)C(=O)N2C", "melting point": "96 to 98 °C"}
{"compound": "CC(C)(C)OC(=O)N1CC2CCC(O)C2C1 (configuration not stated)", "melting point": "61 to 63 °C"}
{"compound": "Cc1ccc(NC(=O)CO)cc1", "melting point": "139 to 141 °C"}
{"compound": "Cc1csc2ccc(Cl)cc2c1=O", "melting point": "109 to 111 °C"}
{"compound": "Cc1oc(-c2ccccc2F)nc1C(=O)O", "melting point": "174 to 176 °C"}
{"compound": "Cc1ccc(C(=O)O)cc1S(=O)(=O)N1CCOCC1", "melting point": "176 to 178 °C"}

Just so you know, measured melting point for Nc1cc(-c2cccc(F)c2F)n[nH]1 came out at 117 to 119 °C

Query Nn1c(S)nnc1SCc1ccccc1 yields melting point of 157 to 159 °C

Memo: O=C(CCl)NCC(=O)N1CCCC1 , reported melting point: 125 to 127 °C

NC(=O)c1cc(N)cc(C(N)=O)c1 yielded melting point of 246 to 248 °C

// field: melting point; key: Cc1noc(C)c1COc1ccc(C(=O)O)cc1 ; value = 224 to 226 °C

Looking up O=c1cc(C(F)(F)F)[nH]c(=O)[nH]1 , I see its melting point listed as 210 to 212 °C

Entry under test: O=C(O)C1=C(Nc2ccccc2)OCC1=O . Its melting point was 140 to 150 °C

CC(C)(C)Sc1ccc(C(N)=S)cc1 has a reported melting point of 163 to 165 °C

N#CCNC(=O)CCl has a reported melting point of 88 to 90 °C

Record summary for COc1cc(C(=O)O)ccc1OCC(N)=O : reported melting point = 257 to 259 °C

// sample COc1cc(C#N)ccc1OCCCC(=O)O , its melting point was 146 to 148 °C

The compound Nc1nncc(-c2ccccc2F)n1 showed melting point equal to 204 to 206 °C

For this compound ( COC(=O)c1ccc(O)c(C(C)=O)c1 ), measured melting point is 96 to 98 °C

Notebook: CCOC(=O)CN1C(=O)CNC1=O , melting point read as 109 to 111 °C

###

Listing: melting point of selected molecules

{"molecule": "O=C(O)CCOc1ccc(Br)cc1F", "valueKind": "melting point", "endpointResult": "91 to 93 °C"}
{"molecule": "CCC(C#N)(CC)NC(=O)OC(C)(C)C", "valueKind": "melting point", "endpointResult": "98 to 100 °C"}
{"molecule": "OCC1CSCCN1 (configuration not stated)", "valueKind": "melting point", "endpointResult": "84 to 86 °C"}
{"molecule": "CCCN(CCC)C(=O)c1cccc(C(=O)O)c1", "valueKind": "melting point", "endpointResult": "94 to 96 °C"}
{"molecule": "Cc1cc2oc(=O)cc(CCl)c2cc1C(C)C", "valueKind": "melting point", "endpointResult": "132 to 134 °C"}

Measured melting point of O=c1[nH][nH]c2cccc(Cl)c12 : 247 to 249 °C

melting point recorded for this molecule, NNc1ccc(S(=O)(=O)NC2CC2)cn1 , is 195 to 197 °C

Reported melting point of CCOC(=O)CC(O)c1ccc(OCc2ccccc2)cc1 (configuration not stated) : 61 to 63 °C

Please fill in: melting point reported for Cc1ccnn1-c1ccccn1 = 34 to 36 °C

melting point reported for this molecule O=C(O)Cc1csc(-c2ccsc2)n1 : 110 to 112 °C

Form field melting point, entry Cc1ocnc1C(=O)O : 127 to 129 °C

Field melting point (entry Nc1ccc(Sc2ccccc2)c(Cl)c1 ) reads 55 to 57 °C

###

Listed next: entries and their corresponding melting point.

Observe how each entry below is paired with its result.
{"compound": "O=C(O)c1ccccc1SCc1ccsc1", "melting point": "213 to 215 °C"}
{"compound": "NC(=NO)c1cccc(Oc2ccccc2)c1", "melting point": "66 to 68 °C"}
{"compound": "Nc1ccccc1C(O)C(F)(F)F (stereo not drawn)", "melting point": "119 to 121 °C"}
{"compound": "Cn1ncc2c(=O)[nH]nnc21", "melting point": "152 to 154 °C"}
{"compound": "Clc1ncc(-c2ccccc2)s1", "melting point": "40 to 42 °C"}

Below: the item to evaluate.
// melting point value for O=C(O)C1CCCCN1C(=O)OCc1ccccc1 (stereo not drawn) : 86 to 88 °C

###

In this section, each of the compounds is paired with its reported melting point.

Example entries begin here.
{"compound": "NC1CCCN(c2cc(C(=O)O)ccn2)C1 (stereo not drawn)", "endpointResult": "252 to 254 °C"}
{"compound": "Cc1cc(C(=O)CCl)c(C)n1-c1ccc2c(c1)OCO2", "endpointResult": "98 to 110 °C"}
{"compound": "O=C(NCCCl)OCC(F)(F)F", "endpointResult": "31 to 33 °C"}

response.value for O=C(CCl)Cc1ccc(F)cc1 (field: melting point) = 127 to 129 °C

response.value for COC(=O)c1ccc(-c2csc(N)n2)cc1 (field: melting point) = 239 to 241 °C

###

valueKind: melting point

{"compound": "Cc1cc(C)c2ncc(C#N)c(Cl)c2c1", "endpointResult": "141 to 143 °C"}

Note to self: melting point recorded for O=C(O)c1ccc(C2CCCOC2)cc1 (configuration not stated) was 166 to 168 °C

What the record says about Cc1c(Cl)cccc1-n1c(S)nnc1-c1ccncc1 : melting point is 322 to 324 °C

Quick note, melting point for Cc1ccc2ncc(C(=O)O)n2c1 landed at 177 to 179 °C

Please fill in: melting point reported for CC(C)(C)OC(=O)NCCOc1ccc(N)cc1 = 73 to 75 °C
